Test: Half life in human
Assay type: ADME
OBSERVABLE: half-life (h)

(I) CC1=C(C#N)[C@@H](c2ccc(C#N)cc2S(C)(=O)=O)N(C)C(=O)N1c1cccc(C(F)(F)F)c1
(II) CC(C)(O)c1coc(S(=O)(=O)NC(=O)Nc2c3c(cc4c2CCC4)CCC3)c1
Return label of the item with the larger half-life. Candidates: I , II . Lab note: record the label of whichever item you select.
I

* * *

Biological target: UniProtKB Q07343
Sequence (Q07343 whole entry): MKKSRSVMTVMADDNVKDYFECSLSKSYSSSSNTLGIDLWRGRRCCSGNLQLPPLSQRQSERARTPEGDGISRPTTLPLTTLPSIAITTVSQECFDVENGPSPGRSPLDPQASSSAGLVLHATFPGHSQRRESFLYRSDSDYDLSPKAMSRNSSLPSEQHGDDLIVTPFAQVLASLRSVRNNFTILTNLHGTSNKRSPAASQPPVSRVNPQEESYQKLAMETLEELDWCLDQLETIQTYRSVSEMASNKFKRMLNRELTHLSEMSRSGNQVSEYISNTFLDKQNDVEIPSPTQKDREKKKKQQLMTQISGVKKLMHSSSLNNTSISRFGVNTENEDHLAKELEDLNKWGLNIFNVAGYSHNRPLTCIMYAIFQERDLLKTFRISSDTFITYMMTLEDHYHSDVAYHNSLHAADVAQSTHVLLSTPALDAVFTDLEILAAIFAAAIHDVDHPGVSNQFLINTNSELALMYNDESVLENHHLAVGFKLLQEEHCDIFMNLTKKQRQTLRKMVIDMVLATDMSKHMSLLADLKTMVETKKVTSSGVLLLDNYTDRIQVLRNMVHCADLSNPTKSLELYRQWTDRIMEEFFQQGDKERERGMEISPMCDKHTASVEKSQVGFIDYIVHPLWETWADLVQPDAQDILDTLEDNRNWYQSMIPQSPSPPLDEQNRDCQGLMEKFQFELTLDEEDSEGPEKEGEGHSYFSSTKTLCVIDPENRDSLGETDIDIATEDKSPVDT
OBSERVABLE: pIC50
// field semantics: pIC50 = negative decimal log of concentration (mol/L)

If you can, please state the reported pIC50 value of `COc1cccc(Nc2c(C(N)=O)cnc3c(C)cc(S(=O)(=O)c4cccc(C(=O)Nc5ccc(C#CCCCNC[C@H](O)c6ccc(O)c7[nH]c(=O)ccc67)cc5)c4)cc23)c1` .
8.30

* * *

Biological target: UniProt Q12809
Sequence (Q12809 whole entry): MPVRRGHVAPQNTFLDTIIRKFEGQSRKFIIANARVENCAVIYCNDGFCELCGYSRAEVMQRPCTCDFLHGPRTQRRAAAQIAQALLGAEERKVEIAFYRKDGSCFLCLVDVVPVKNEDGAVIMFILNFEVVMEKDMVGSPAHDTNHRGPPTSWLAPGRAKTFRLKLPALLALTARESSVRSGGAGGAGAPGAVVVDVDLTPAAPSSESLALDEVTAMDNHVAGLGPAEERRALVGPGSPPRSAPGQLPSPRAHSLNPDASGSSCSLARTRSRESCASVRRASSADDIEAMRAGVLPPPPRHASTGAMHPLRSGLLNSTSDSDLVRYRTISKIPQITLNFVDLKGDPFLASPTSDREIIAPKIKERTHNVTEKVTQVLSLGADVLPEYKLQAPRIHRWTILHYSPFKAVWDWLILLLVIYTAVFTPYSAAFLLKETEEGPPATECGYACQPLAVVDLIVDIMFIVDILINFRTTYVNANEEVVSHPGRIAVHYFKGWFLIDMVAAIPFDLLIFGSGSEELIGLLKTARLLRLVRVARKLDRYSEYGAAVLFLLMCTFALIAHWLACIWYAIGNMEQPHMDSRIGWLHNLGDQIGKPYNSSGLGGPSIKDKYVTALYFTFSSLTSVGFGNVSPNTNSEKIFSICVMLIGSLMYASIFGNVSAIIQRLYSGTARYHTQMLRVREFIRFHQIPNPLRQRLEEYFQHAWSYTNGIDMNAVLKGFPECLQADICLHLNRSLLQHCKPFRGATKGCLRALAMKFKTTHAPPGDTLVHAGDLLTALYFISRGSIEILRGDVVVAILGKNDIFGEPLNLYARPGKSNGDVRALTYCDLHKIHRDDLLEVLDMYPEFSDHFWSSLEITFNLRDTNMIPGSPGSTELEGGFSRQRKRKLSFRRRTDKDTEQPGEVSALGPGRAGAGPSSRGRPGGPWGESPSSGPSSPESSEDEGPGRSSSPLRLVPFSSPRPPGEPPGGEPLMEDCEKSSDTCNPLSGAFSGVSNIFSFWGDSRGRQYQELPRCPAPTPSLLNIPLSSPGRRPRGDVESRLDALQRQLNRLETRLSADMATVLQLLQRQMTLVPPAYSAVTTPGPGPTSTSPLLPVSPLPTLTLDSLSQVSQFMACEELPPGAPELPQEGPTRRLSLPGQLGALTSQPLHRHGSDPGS
Test: Inhibition of human ERG by high throughput automated patch clamp method
OBSERVABLE: IC50

Lab request: please report IC50 under test system UniProt Q12809 for `CC(C)(O)c1coc(S(=O)(=O)NC(=O)Nc2c3c(cc4c2CCC4)CCC3)c1`
> 30 µM

* * *

Molecular target: UniProt:P07550
Assay: Agonist activity at human beta2 adrenoceptor
compounds and their reported pEC50
Scale for pEC50: -log10 of concentration given in mol/L; no unit attached.

CC(C)c1ncc(C(=O)N2CCOC3(CCN(Cc4ccc(F)c(CCNC[C@H](O)c5ccc(O)c6[nH]c(=O)sc56)c4)CC3)C2)s1    9.60
COc1cc(NC(=O)OCCN(C)[C@H]2CC[C@H](OC(=O)C(O)(c3cccs3)c3cccs3)CC2)c(Cl)cc1CNC[C@H](O)c1ccc(O)c2[nH]c(=O)ccc12 [LAS190792]    9.60

In the following, a different compound is considered.
Given the entry CN(CCCn1nnc2cc(CNC[C@H](O)c3ccc(O)c4[nH]c(=O)ccc34)ccc21)[C@H]1CC[C@H](OC(=O)C(O)(c2cccs2)c2cccs2)CC1 [NAVAFENTEROL] , report its measured pEC50.
9.60

* * *

Target: Beta-2 adrenergic receptor (Homo sapiens, UniProt P07550)
Sequence (P07550 whole entry): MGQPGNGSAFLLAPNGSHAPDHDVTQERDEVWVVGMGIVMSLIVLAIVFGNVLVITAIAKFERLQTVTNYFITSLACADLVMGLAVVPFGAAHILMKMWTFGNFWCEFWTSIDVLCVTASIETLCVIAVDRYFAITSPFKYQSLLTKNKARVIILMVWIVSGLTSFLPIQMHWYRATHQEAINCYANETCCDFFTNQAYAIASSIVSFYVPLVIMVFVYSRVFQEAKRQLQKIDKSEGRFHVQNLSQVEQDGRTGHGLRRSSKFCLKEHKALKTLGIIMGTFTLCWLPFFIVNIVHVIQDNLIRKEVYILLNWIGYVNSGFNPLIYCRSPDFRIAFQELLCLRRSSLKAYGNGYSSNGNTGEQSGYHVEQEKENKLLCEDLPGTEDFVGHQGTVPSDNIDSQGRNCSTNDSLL
OBSERVABLE: IC50 (nM)
Give your result in nM as a bare value.

Query IC50 on Beta-2 adrenergic receptor (Homo sapiens, UniProt P07550) for `COc1cccc(Nc2c(C(N)=O)cnc3c(C)cc(S(=O)(=O)c4cccc(C(=O)Nc5ccc(C#CCCCNC[C@H](O)c6ccc(O)c7[nH]c(=O)ccc67)cc5)c4)cc23)c1`
11

* * *

Assay: Oral bioavailability in human
Format: ADME, organism-based
Settings: in vivo
OBSERVABLE: bioavailability (%)

CC1=C(C#N)[C@@H](c2ccc(C#N)cc2S(C)(=O)=O)N(C)C(=O)N1c1cccc(C(F)(F)F)c1    63
CC(C)(O)c1coc(S(=O)(=O)NC(=O)Nc2c3c(cc4c2CCC4)CCC3)c1    68

* * *

Target: Muscarinic acetylcholine receptor M3 (Homo sapiens, UniProt P20309)
Sequence (P20309 whole entry): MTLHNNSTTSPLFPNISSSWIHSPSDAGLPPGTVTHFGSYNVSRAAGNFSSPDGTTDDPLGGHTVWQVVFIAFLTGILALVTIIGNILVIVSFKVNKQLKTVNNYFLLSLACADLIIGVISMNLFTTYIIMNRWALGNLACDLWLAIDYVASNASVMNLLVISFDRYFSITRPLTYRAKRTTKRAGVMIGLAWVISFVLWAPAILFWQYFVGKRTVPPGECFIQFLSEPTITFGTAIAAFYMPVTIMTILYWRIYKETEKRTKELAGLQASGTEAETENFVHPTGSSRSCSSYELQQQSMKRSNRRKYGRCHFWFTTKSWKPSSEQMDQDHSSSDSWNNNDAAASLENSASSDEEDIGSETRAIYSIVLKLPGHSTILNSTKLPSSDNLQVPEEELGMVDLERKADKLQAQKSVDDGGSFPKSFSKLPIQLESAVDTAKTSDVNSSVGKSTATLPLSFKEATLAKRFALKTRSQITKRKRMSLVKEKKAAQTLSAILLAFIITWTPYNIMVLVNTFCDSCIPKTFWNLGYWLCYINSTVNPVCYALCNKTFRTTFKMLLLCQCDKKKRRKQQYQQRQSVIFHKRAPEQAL
OBSERVABLE: IC50 (nM)
Use nM as the unit, but write only the number.

Under Muscarinic acetylcholine receptor M3 (Homo sapiens, UniProt P20309): IC50 value of `CN(CCCn1nnc2cc(CNC[C@H](O)c3ccc(O)c4[nH]c(=O)ccc34)ccc21)[C@H]1CC[C@H](OC(=O)C(O)(c2cccs2)c2cccs2)CC1` ?
1.58
